// reported melting point for each item listed

Past entries and their recorded results:
Query: Consider the molecule shown here: "O=S(=O)(COc1ncc(Cl)cn1)c1ncc(Cl)cn1" What is its recorded melting point?
Response: 135 °C

Query: # repeat for "CCOc1ccc(S(=O)(=O)Cl)cc1C(=O)OC"
Response: 99 to 100 °C

Query: // repeat for "CC(C)n1nc(CC(=O)c2cccc(F)c2)ccc1=O" and report
Response: 80 to 81 °C

Query: Would you kindly repeat that for O=S(CCCCCOc1ccc(C2=C(c3ccccc3)CCCc3ccccc32)cc1)CCCC(F)(F)C(F)(F)F (stereo not given) ?
Response: 114 to 116 °C

Now let's try a different one.
Query: Data request, read-out melting point, for "CCN(CC)CCNC(=O)c1cc(Cl)c(NS(=O)(=O)c2ccc3ccccc3c2)cc1OC"
Response: 148 to 149 °C

* * *

Reported melting point values are given for each entry in this list.

Field: example entries. Status: answers known.
Query: Recorded melting point of CCOC(=O)c1cc(=O)c2cccc(NC(=O)c3ccc4c(c3)CC(COCc3ccccc3)O4)c2o1 (centres undefined) , please.
Response: 166 to 168 °C

Query: Query CCCC1=C(C#N)C(c2ccccc2Cl)c2c(n[nH]c2-c2ccccc2)N1 (centres undefined) next
Response: 262 °C

Query: Can you handle "CN(C)C(=O)N1CCc2ccc(Nc3nc4c(-c5cc(Cl)ccc5OCC(F)F)cccn4n3)cc2CC1" next?
Response: 98 to 99 °C

Query: Now the same for COc1ccc(C2Sc3ccccc3N(CCN(C)C)C(=O)C2OC(C)=O)cc1 (centres undefined)
Response: 134 to 135 °C

Query: Let us now turn to "OC(c1ccccc1)(c1ccccc1)c1ccccc1Cl"
Response: 87 °C

Query: And for CCc1cccc2c3c([nH]c12)C(C)(CC(=O)O)CCCC3 (centres undefined) ?
Response: 148 to 151 °C

Query: Further, for "COc1cc(C=O)cc2c(C)c(C)oc12" ?
Response: 80 to 81 °C

Query: Continue with "CCCc1nc2ccccc2n1Cc1ccc(-c2ncccc2C(=O)O)cc1"
Response: 238 to 239 °C

Field: next compound
Query: Name the reported melting point value associated with the compound COc1cc(C2C3=C(COC3=O)N(Cc3ccc([N+](=O)[O-])cc3)c3cc4c(cc32)OCO4)cc(OC)c1O (centres undefined)
Response: 193 °C

* * *

The following molecules are listed with their measured melting point values.

Record excerpt, results attached:
Query: What measured melting point goes with "COc1cc2c(Nc3cccc(Cl)c3F)ncnc2cc1OC1CCN(C(=O)C2(O)CC2)CC1" ?
Response: 177 to 178 °C

Query: Next up: "NS(=O)(=O)c1cc2c(cc1Cl)C(=O)N(CCCN1CCOCC1)C2=O"
Response: 190 to 191 °C

Query: Input "Clc1nnc(Cc2ccncc2)c2ccccc12"
Response: 116 to 119 °C

Query: // next record "CC(=O)Oc1ccc(C(=O)O)c(C)c1"
Response: 136 to 138 °C

Query: Next: "CC(=O)Oc1ccc(C)cc1[C@H](CCN(C(C)C)C(C)C)c1ccccc1"
Response: 126 to 130 °C

Query: What about this molecule? "Cc1cc(C)c2c(c1)c(-c1ccccc1Cl)c(C(=O)O)c(=O)n2C"
Response: 162 to 163 °C

Query: What would you report for "CCCc1c(OCCCSc2ccc(C(=O)CCCCC(=O)O)cc2)ccc(C(C)=O)c1O" ?
Response: 130 to 132 °C

Query: Note, next up: "N#Cc1c[nH]c(-c2ccc(Cl)cc2)c1"
Response: 174 to 175 °C

Query: Similarly, "Cn1cccc(N)c1=S" ?
Response: 98 to 100 °C

Query: Okay, and "C=C(C)C(=O)OCCOc1ccc(N=Nc2ccc(C#N)cc2)cc1C#N" ?
Response: 110 °C

Further cases:
Query: Can you look up the measured melting point of "O=C(Nc1c(F)cc(F)cc1F)N(Cc1cc2ccccc2c2ccccc12)C1CCCCC1" for me?
Response: 122 to 124 °C

Query: Please answer likewise for "COc1ccc(CCc2ccc(-n3c(C)nc4cnccc43)cc2)cc1OC1CCCC1"
Response: 123 to 125 °C

Values were extracted from a melting point compilation (Tetko et al.; mined from patent text by program, amines drawn as free bases though some values may be those of a salt).
